Each entry below carries its recorded pIC50.
target: Kir3.1/3.4 (Rattus norvegicus, UniProt P48548+P63251); construct: expressed in transfected cells; assay: Kir3.1/3.4 Electrophysiology Method (manual whole-cell patch clamp); assay type: cell-based; settings: Electrophysiology Method (TABLE 1)
Sequence (P63251 whole entry): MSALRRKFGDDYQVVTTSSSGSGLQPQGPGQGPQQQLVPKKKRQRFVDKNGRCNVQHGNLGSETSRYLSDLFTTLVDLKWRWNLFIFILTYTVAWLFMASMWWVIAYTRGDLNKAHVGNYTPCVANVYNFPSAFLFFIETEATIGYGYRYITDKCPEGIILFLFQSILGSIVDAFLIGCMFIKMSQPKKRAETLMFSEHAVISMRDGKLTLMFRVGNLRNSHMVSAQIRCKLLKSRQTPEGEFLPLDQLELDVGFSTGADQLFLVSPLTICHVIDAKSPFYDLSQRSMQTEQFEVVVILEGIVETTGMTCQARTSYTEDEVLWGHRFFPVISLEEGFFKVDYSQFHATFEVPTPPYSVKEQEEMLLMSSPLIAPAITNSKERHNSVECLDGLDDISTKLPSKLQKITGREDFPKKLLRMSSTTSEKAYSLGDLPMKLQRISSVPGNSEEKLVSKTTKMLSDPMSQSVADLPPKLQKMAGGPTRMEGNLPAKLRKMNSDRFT
Sequence (P48548 whole entry): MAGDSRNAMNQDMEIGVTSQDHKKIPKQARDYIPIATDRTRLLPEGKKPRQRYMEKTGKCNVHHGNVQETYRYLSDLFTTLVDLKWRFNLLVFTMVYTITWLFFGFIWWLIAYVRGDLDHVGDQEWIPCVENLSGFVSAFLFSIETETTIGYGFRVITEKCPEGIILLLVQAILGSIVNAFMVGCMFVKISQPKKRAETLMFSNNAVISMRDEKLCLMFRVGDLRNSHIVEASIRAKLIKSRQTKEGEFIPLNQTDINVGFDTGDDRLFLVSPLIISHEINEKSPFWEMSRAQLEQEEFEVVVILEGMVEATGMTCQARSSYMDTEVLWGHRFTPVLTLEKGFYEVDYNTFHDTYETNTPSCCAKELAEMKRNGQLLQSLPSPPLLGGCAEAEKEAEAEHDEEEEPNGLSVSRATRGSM
pIC50: −log10 of the molar value.

Query block: Reported pIC50, compound CN(C)C1CCN(c2ncnc3scc(-c4ccccc4)c23)CC1 [Example 169] : ____
Result block: 5.52 to 6.30

Others:
Query block: I would be grateful if you could share the reported pIC50 for CN1CCC(N(C)CC2CCN(c3ncnc4scc(-c5ccccc5)c34)C2)C1 (centres unmarked) [Example 205] .
Result block: > 6.30

Query block: Need pIC50 of c1ccc(-c2csc3ncnc(N4CCC(COCCN5CCCC5)CC4)c23)nc1 [Example 320] , thanks.
Result block: 5.52 to 6.30

Query block: What does the record list as pIC50 for CC(C)c1csc2ncnc(N3C4CCC3CC(OCCN3CCCC3)C4)c12 (centres unmarked) [Example 297] ?
Result block: > 6.30

Query block: Given the entry CNC(=O)C1CCCN(c2nc(N3CCC(CN(C)C4CCN(C)C4)CC3)c3c(-c4ccccc4)csc3n2)C1 (centres unmarked) [Example 227] , report its measured pIC50.
Result block: > 6.30

Query block: # query: pIC50 of entry COCC1CCN(c2nc(CC(=O)N3CCCC3)nc3scc(-c4ccccc4)c23)CC1 [Example 183]
Result block: 5.52 to 6.30

Query block: So what's the measured pIC50 for this one? N[C@H]1CCCN(CC2CCN(c3ncnc4scc(-c5ccccc5)c34)CC2)C1 [Example 90]
Result block: > 6.30

Query block: Please give the measured pIC50 for this compound: O[C@H]1CN(CC2CCN(c3ncnc4scc(-c5ccccc5)c34)CC2)C[C@@H]1N1CCCC1 [Example 67]
Result block: > 6.30
